molecular target: Prostaglandin G/H synthase 1 (Ovis aries)
Sequence (P05979 whole entry): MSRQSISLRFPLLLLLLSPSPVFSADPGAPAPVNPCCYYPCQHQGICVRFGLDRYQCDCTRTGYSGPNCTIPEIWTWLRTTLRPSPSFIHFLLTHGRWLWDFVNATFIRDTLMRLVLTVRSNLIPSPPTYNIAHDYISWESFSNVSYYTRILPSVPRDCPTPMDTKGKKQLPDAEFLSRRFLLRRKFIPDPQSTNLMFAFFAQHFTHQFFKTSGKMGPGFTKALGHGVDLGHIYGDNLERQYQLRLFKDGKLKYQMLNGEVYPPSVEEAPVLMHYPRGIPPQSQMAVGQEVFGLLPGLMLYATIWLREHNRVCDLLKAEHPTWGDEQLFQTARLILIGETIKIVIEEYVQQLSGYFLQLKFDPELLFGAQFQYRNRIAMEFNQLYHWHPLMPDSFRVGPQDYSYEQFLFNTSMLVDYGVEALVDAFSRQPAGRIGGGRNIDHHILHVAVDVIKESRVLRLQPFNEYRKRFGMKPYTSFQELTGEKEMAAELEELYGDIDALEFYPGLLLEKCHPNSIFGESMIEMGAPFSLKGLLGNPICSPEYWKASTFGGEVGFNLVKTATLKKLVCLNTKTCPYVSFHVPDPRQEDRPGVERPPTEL
Parameter Measured: IC50 (nM)
Write the number in nM without appending the unit.

Which IC50 is reported for this compound? `CC1(C)Cc2c(-c3ccccc3)c(-c3ccc(Cl)cc3)c(CC(=O)O)n2C1`
160

* * *

assay: Solubility of the compound in chloroform by shake-flask method; format: physicochemical
Parameter Measured: solubility

Past entries and their recorded results:
- Structure: "CCCCc1c(C(=O)O)c2ccccn2c1CN"
  Parameter Measured: "solubility"
  Value Observed: "Insoluble"
- Structure: "COc1cc(-c2c(C(=O)O)c3ccccn3c2CN)ccc1O"
  Parameter Measured: "solubility"
  Value Observed: "Insoluble"
- Structure: "Cc1c(C(=O)O)c2ccccn2c1CN"
  Parameter Measured: "solubility"
  Value Observed: "Insoluble"
- Structure: "NCc1c(-c2ccc(F)cc2)c(C(=O)O)c2ccccn12"
  Parameter Measured: "solubility"
  Value Observed: "Insoluble"
- Structure: "NCc1c(-c2ccc(C(F)(F)F)cc2)c(C(=O)O)c2ccccn12"
  Parameter Measured: "solubility"
  Value Observed: "Insoluble"

Which solubility is reported for this compound? `NCc1c(-c2ccc3c(c2)OCO3)c(C(=O)O)c2ccccn12`
Insoluble

Would you mind doing `NCc1c(-c2ccccc2)c(C(=O)O)c2ccccn12` as well?
Insoluble

Would you mind doing `CCc1c(C(=O)O)c2ccccn2c1CN` as well?
Insoluble

* * *

assay: n-Octanol-water partition coefficient, log P of the compound by shake-flask method; assay type: physicochemical
Parameter Measured: logP

Which logP is reported for this compound? `NCc1c(-c2ccc(F)cc2)c(C(=O)O)c2ccccn12`
2.12

Would you mind doing `CCc1c(C(=O)O)c2ccccn2c1CN` as well?
1.45

Would you mind doing `COc1cc(-c2c(C(=O)O)c3ccccn3c2CN)ccc1O` as well?
1.55

Would you mind doing `NCc1c(-c2ccccc2)c(C(=O)O)c2ccccn12` as well?
1.85

Would you mind doing `CCCCc1c(C(=O)O)c2ccccn2c1CN` as well?
2.07

Would you mind doing `NCc1c(-c2ccc3c(c2)OCO3)c(C(=O)O)c2ccccn12` as well?
2.07

Would you mind doing `Cc1c(C(=O)O)c2ccccn2c1CN` as well?
0.72

Would you mind doing `NCc1c(-c2ccc(C(F)(F)F)cc2)c(C(=O)O)c2ccccn12` as well?
2.06

* * *

assay: Solubility of the compound in ethanol by shake-flask method; assay type: physicochemical
Parameter Measured: solubility

Past entries and their recorded results:
- Structure: "COc1cc(-c2c(C(=O)O)c3ccccn3c2CN)ccc1O"
  solubility: "Soluble"
- Structure: "NCc1c(-c2ccccc2)c(C(=O)O)c2ccccn12"
  solubility: "Soluble"
- Structure: "NCc1c(-c2ccc3c(c2)OCO3)c(C(=O)O)c2ccccn12"
  solubility: "Soluble"
- Structure: "CCc1c(C(=O)O)c2ccccn2c1CN"
  solubility: "Soluble"
- Structure: "NCc1c(-c2ccc(F)cc2)c(C(=O)O)c2ccccn12"
  solubility: "Soluble"
- Structure: "NCc1c(-c2ccc(C(F)(F)F)cc2)c(C(=O)O)c2ccccn12"
  solubility: "Soluble"
- Structure: "Cc1c(C(=O)O)c2ccccn2c1CN"
  solubility: "Soluble"

Okay, now this compound:
Which solubility is reported for this compound? `CCCCc1c(C(=O)O)c2ccccn2c1CN`
Soluble
